- experimental_system: rat IBAT (Rattus norvegicus)
- Sequence (Q62633 1-348): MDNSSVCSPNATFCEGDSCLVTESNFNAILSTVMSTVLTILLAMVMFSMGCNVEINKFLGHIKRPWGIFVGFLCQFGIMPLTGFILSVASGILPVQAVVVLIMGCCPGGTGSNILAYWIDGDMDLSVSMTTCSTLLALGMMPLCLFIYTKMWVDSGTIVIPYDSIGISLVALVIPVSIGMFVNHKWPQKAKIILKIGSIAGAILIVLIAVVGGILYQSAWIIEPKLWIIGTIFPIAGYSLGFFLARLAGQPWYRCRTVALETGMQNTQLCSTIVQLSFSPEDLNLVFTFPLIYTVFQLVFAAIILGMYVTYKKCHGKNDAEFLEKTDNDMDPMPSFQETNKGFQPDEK
- assay_details: In vitro assay using Cos 7 cells, transiently expressed rat IBAT
- Assay type: cell-based
- test_settings: [3H]-taurocholate 8 μM uptake, 37° C., 60 minutes
pIC50: −log10 of the molar value.
property_measured: pIC50

| molecule | pIC50 |
| --- | --- |
| CCCCC1(CCCC)CS(=O)(=O)c2ccc(N(C)C)cc2C(c2cccc(NC(=S)Nc3ccc(C[N+]45CCC(c6ccccc6)(CC4)CC5)cc3F)c2)N1.[Br-] (stereo not drawn) [EXAMPLE P342] | 8.32 |
| CCCCC1(CCCC)CS(=O)(=O)c2ccc(N(C)C)cc2C(c2cccc(NC(=S)Nc3ccc(C[N+]45CCC(CC4)CC5)cc3)c2)N1.[Br-] (racemic) [EXAMPLE 3695] | 8.30 |
| CCCCC1(CCCC)CS(=O)(=O)c2ccc(N(C)C)cc2C(c2cccc(NC(=S)Nc3ccc(C[N+]45CCC(c6ccccc6)(CC4)CC5)cc3Br)c2)N1.[Br-] (stereo not drawn) [EXAMPLE P346] | 8.22 |
